tested on: MCF7; experiment: NCI tumour cell line growth inhibition, 48 h
Calls of active or inactive are those of the source. Cut-off read from the data, not from the text of the source: active = GI50 up to about 1.1 µM and inactive = higher.
Could you please pick one outcome from this set? Yes (active), No (inactive)

- molecule: "Nc1ccc(Oc2ccc(C34CC5CC(C3)CC(c3ccc(Oc6ccc(N)c(O)c6)cc3)(C5)C4)cc2)cc1O"
  tested system: "MCF7"
  label class: "No"
- molecule: "Cc1cc(O)nc(NN2C(Cl)C(=O)C2c2ccccc2O)n1 (stereo not drawn)"
  tested system: "MCF7"
  label class: "No"
- molecule: "CC1CC(OP(=O)(OCc2ccccc2)OCc2ccccc2)[C@@H](OCc2ccccc2)C(OCc2ccccc2)C1OCc1ccccc1 (stereo partly drawn)"
  tested system: "MCF7"
  label class: "No"
- molecule: "C[N+](C)(CCCCCC[N+](C)(C)CCCN1C(=O)c2cccc3cccc(c23)C1=O)CCCN1C(=O)c2cccc3cccc(c23)C1=O"
  tested system: "MCF7"
  label class: "No"
- molecule: "COc1cccc(/C=C\\c2ccnc3ccccc23)c1"
  tested system: "MCF7"
  label class: "No"
- molecule: "O=C1/C(=C\\c2cccc(Oc3ccccc3)c2)SC(c2ccccc2)N1c1ccc(Cl)cc1 (stereo not drawn)"
  tested system: "MCF7"
  label class: "No"
- molecule: "CCOC(=O)c1c(CN2CCCC2)n(-c2ccccc2)c2cc(Br)c(O)cc12"
  tested system: "MCF7"
  label class: "No"
- molecule: "COc1ccc(OC)c(NC2=NCCO2)c1"
  tested system: "MCF7"
  label class: "No"

query: // return assay outcome for CC12CCC(C(Nc3ccccn3)C1=O)C2(C)C (stereo not drawn)
result: No

query: What did this assay record as the result for COc1ccc(C[N+](C)(C)N)cc1OC ?
result: No

query: I would be grateful if you could indicate the recorded call for Cc1sc2nc(-c3ccc([N+](=O)[O-])cc3)c(/C=N/N=C(N)N)n2c1C .
result: Yes

query: Hi team, can someone confirm the assay call for O=C1C=C(NCCc2cc(Br)c(O)c(Br)c2)C(=O)c2[nH]cnc21 ?
result: No

query: Tell me the recorded outcome of this test for CN(C)CCNC(=O)Cn1ccc(=O)c2cc([N+](=O)[O-])ccc21 .
result: No

query: Which result was noted for this molecule in the test: NC(=O)SCC(=O)Nc1ccc2cccc3c2c1CC3
result: No

query: What was the test verdict on C=C(Br)CNCC(=C)Br ?
result: No

query: Could you kindly confirm the outcome this assay logged for CN1C(=O)C23CC4=CC=CC(O)C4N2C(=O)C1(CO)SS3 (stereo not drawn) ?
result: Yes

query: Check the results log: what was the call for O=C(O)C1(Cc2ccccc2)Cc2ccccc2C1 ?
result: No

query: Could you kindly confirm the outcome this assay logged for COc1cccc2c1OCC1Cc3ccccc3OC21 (stereo not drawn) ?
result: No

query: For this molecule, state the assay outcome: S=C(Nc1ccc(Cl)cc1)SC1CCCCC1
result: No

query: Test call, this molecule: COC1=CC(=O)c2c(c(COP(=O)(N(C)CCBr)N(C)CCBr)cn2C)C1=O
result: Yes

query: Could you please tell me the result logged for CN1CCN(CCCCN2c3ccccc3Sc3ccc(N=[N+]=[N-])cc32)CC1 in this assay?
result: No

query: # outcome recorded in this test, key = Cc1cc(OCc2nnc3n2N=C(c2cc(F)c(Cl)cc2Cl)/C(=C/c2ccc(-c4ccc(Cl)cc4)o2)S3)ccc1Cl
result: No

query: Assay result, entry O=C(N/N=C\c1ccccc1)Nc1cccc2ccccc12 — outcome?
result: No

query: Which result was noted for this molecule in the test: Cc1nc(O)nc2nc3ccc(Cl)cc3c(NCCNCCO)c12
result: No

query: Tell me the recorded outcome of this test for Fc1cccc(F)c1C1SCC2=Nc3ccccc3CN21 (stereo not drawn) .
result: No
